The following binders are listed with their measured ADCC cytotoxic activity (51Cr release) on NCI-N87 values.
Assayed System: T1, CAPRIN-1 protein expressed on the membrane surface of human cancer cells (human, UniProt Q14444 2-709)
T1 sequence (looked up): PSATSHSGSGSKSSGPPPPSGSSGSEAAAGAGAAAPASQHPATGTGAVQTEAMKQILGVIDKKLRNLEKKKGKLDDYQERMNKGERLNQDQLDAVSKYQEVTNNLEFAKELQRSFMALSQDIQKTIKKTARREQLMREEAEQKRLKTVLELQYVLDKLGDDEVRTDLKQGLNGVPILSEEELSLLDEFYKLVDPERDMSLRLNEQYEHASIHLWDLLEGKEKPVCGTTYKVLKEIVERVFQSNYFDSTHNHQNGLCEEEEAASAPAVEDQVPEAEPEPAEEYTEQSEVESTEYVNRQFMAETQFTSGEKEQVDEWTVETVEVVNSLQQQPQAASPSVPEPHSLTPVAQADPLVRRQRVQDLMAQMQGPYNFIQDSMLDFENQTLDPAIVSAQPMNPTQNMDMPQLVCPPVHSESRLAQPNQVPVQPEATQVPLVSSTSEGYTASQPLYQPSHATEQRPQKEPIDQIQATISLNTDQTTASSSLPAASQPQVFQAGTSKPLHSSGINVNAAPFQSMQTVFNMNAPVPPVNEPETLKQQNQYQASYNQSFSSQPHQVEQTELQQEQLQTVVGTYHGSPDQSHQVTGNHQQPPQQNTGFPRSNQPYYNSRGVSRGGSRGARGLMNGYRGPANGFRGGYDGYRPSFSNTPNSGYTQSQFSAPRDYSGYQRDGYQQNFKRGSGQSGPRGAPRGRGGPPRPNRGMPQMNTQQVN
Assay Comment: cell-based or functional assay

{"columns": ["Binder", "Result"],
 "data": [
  ["humanized antibody #9 (antibody, V domains shown) VH: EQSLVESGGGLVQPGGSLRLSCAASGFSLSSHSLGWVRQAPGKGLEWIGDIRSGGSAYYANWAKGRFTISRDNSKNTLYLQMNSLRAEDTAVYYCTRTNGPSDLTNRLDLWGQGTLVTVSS VL: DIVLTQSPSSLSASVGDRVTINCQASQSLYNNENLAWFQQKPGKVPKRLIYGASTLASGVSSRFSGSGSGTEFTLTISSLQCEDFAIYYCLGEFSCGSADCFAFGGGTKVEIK", "≥ 34%"],
  ["humanized antibody #7 (antibody, V domains shown) VH: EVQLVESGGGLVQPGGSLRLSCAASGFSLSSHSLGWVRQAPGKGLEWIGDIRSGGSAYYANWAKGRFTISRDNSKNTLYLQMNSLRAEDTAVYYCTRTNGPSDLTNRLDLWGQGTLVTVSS VL: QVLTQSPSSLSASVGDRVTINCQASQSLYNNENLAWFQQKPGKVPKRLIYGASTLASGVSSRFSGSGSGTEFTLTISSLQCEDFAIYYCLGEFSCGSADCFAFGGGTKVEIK", "≥ 45%"]
]}

Query :: Specify measured ADCC cytotoxic activity (51Cr release) on NCI-N87 for humanized antibody #8 (antibody, V domains shown) VH: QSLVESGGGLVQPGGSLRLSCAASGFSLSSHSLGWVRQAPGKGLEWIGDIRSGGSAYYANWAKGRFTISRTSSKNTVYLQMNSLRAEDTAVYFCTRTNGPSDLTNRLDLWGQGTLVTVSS VL: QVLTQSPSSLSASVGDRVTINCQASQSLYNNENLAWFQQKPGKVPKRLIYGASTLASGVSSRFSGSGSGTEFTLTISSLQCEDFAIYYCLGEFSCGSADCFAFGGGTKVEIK .
Result :: ≥ 34%
